Listed below: protein stability index values for each entry.
- System: Saccharomyces cerevisiae
- PROTOCOL DETAILS: protein stability index of tFT-peptide fusion (C-terminal peptide) (PSI (0-1 scale)); higher = more stable (slower turnover)
- CONDITION PARAMETERS: genetic background: wild type; temperature: 30 C
Response field accepts a number only; no unit should be typed.

LFLTSFRFLRLF ... 0.0691

Attention now turns to another entry.
What value of protein stability index has been recorded for this entry: LAGSSSIVVVFG
0.297

* * *

- System: Saccharomyces cerevisiae;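 further: PSI is a weighted mean of sequencing reads over stability bins, variants kept only with over 10 reads, mCherry proximal and sfGFP distal, peptide attached via GGGS linker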
- PROTOCOL DETAILS: protein stability index of tFT-peptide fusion (C-terminal peptide) (PSI (0-1 scale)); higher = more stable (slower turnover)
- CONDITION PARAMETERS: genetic background: wild type; temperature: 37 C
OBSERVABLE: protein stability index
Response field accepts a number only; no unit should be typed.

Look over these answered cases.
VYVVLGTVYVTY ... 0.362
LALTRAAITHFF ... 0.496
LPHIFFCLFSLL ... 0.317
VFFLFLVFLTVV ... 0.263
LIARYTFLFCLC ... 0.488
CLLWVVWSLLWV ... 0.416

Reported protein stability index for Saccharomyces cerevisiae, given GHFILFWVFCFM ?
0.409

Reported protein stability index for Saccharomyces cerevisiae, given ISSAGHNIRFLA ?
0.21

Reported protein stability index for Saccharomyces cerevisiae, given DTHSRARAVLIA ?
0.509

Reported protein stability index for Saccharomyces cerevisiae, given RRIKNRRLKQVT ?
0.472

Reported protein stability index for Saccharomyces cerevisiae, given CVPAPCGRASCR ?
0.706

Reported protein stability index for Saccharomyces cerevisiae, given WSHVPLAPLSCF ?
0.426

Reported protein stability index for Saccharomyces cerevisiae, given FYAAILCLLFSC ?
0.385

Reported protein stability index for Saccharomyces cerevisiae, given RWRYHAYVITIL ?
0.0987

Measured values drawn from the supplement of paper PMC10724198 for this set.
